Would you kindly list Binding Signal (fold over 6E7 parental antibody) for each of these binders?
Target under test: T1, human TREM2 (human) (UniProt Q9NZC2)
T1 sequence (looked up): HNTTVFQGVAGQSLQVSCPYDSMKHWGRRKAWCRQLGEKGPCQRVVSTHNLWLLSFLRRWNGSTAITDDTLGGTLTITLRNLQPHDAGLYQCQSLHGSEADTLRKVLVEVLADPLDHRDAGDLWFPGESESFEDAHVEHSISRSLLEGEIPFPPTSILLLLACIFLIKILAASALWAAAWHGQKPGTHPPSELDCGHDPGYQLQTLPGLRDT
Experiment description: 2nd screen, 100 nM Ab
Write the number in fold without appending the unit.

Please give the measured Binding Signal (fold over 6E7 parental antibody) for this binder: 6E7 variant V78 (antibody, V domains shown) VH: EVQLVQSGAEVKKPGESLKISCKGSGYRFTSYWIAWVRQMPGKGLEWMGIIYPGDSDTRYSPSFQGQVTISADKSISTAYLQWSSLKASDTAMYFCARQRTFYYDSSDYFDYWGQGTLVTVSS VL: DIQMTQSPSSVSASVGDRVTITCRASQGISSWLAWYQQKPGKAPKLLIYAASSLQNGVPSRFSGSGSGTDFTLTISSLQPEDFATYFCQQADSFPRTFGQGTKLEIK
1.11

Please give the measured Binding Signal (fold over 6E7 parental antibody) for this binder: 6E7 variant V71 (antibody, V domains shown) VH: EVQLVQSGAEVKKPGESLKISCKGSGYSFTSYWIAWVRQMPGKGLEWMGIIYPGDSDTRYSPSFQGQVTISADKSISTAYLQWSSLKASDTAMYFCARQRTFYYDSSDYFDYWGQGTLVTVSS VL: DIQMTQSPSSVSASVGDRVTITCRASQGISSWLAWYQQKPGKAPKLLIYAASSLQNGVPSRFSGSGSGTDFTLTISSLQPEDFATYFCQQADSEPRTFGQGTKLEIK
0.48

Please give the measured Binding Signal (fold over 6E7 parental antibody) for this binder: 6E7 variant V35 (antibody, V domains shown) VH: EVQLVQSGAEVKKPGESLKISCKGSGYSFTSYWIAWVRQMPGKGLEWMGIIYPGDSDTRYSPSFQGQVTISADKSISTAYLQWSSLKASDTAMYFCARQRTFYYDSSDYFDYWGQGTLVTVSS VL: DIQMTQSPSSVSASVGDRVTITCRASQGISSWLAWYQQKPGKAPKLLIYAASSLQNGVPSRFSGSGSGTDFTLTISSLQPEDFATYFCQQAYSFPRTFGQGTKLEIK
0.29

Please give the measured Binding Signal (fold over 6E7 parental antibody) for this binder: 6E7 variant V45 (antibody, V domains shown) VH: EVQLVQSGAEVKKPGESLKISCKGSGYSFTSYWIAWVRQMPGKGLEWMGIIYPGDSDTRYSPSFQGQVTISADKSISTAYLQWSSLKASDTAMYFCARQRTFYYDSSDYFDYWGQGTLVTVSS VL: DIQMTQSPSSVSASVGDRVTITCRASQGISSFLAWYQQKPGKAPKLLIYAASSLQNGVPSRFSGSGSGTDFTLTISSLQPEDFATYFCQQADSFPRTFGQGTKLEIK
0.53

Please give the measured Binding Signal (fold over 6E7 parental antibody) for this binder: 6E7 variant V10 (antibody, V domains shown) VH: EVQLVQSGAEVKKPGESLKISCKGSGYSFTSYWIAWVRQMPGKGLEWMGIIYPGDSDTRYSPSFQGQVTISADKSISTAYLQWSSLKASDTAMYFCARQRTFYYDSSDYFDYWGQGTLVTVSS VL: DIQMTQSPSSVSASVGDRVTITCRASQGISSWLAWYQQKPGKAPKLLIYSASSLQNGVPSRFSGSGSGTDFTLTISSLQPEDFATYFCQQADSFPRTFGQGTKLEIK
0.7
